Where these numbers come from: patent US10183944B2

IC50 reference
- test.target: Syk (356-635 amino acids) catalytic domain (Homo sapiens (Human))
- protocol.text: Inhibition of enzymatic Syk kinase activity (radiometric)
- Format: biochemical
- details: read-out: IC50 Syk
Counter-ions that a name gives are not always drawn.
measured.attribute: IC50

compound | test.target | observed
O=c1[nH]ncc2nc(N3CCOCC3)nc(Nc3ccc(CN4CCNCC4)cc3)c12 [Example 3, hydrochloride] | Syk (356-635 amino acids) catalytic domain (Homo sapiens (Human)) | > 100 nM
CCN1CCN(c2ccc(Nc3nc(N4CCC(CC#N)CC4)nc4cn[nH]c(=O)c34)cc2)CC1 [Example 187] | Syk (356-635 amino acids) catalytic domain (Homo sapiens (Human)) | < 10 nM
CCN1CCN(c2ccc(Nc3nc(-c4ccsc4)nc4cn[nH]c(=O)c34)cc2)CC1 [Example 37, hydrochloride] | Syk (356-635 amino acids) catalytic domain (Homo sapiens (Human)) | < 10 nM
O=c1[nH]ncc2nc(N3CCCCCC3)nc(Nc3ccc(N4CCC(CCCO)CC4)cc3)c12 [Example 194] | Syk (356-635 amino acids) catalytic domain (Homo sapiens (Human)) | > 100 nM
O=C(O)CC1CCN(Cc2ccc(Nc3nc(N4CCCCCC4)nc4cn[nH]c(=O)c34)cc2)CC1 [Example 77] | Syk (356-635 amino acids) catalytic domain (Homo sapiens (Human)) | < 50 nM
COC(=O)c1ccc(-c2nc(Nc3ccc(CN4CCNCC4)cc3)c3c(=O)[nH]ncc3n2)cc1 [Example 2, hydrochloride] | Syk (356-635 amino acids) catalytic domain (Homo sapiens (Human)) | < 100 nM
O=c1[nH]ncc2nc(-c3ccc4c(c3)OCO4)nc(Nc3ccc(CN4CCNCC4)cc3)c12 [Example 33, hydrochloride] | Syk (356-635 amino acids) catalytic domain (Homo sapiens (Human)) | < 50 nM
O=C1CN(CCOc2ccc(Nc3nc(N4CCCCCC4)nc4cn[nH]c(=O)c34)cc2)CCN1 [Example 157] | Syk (356-635 amino acids) catalytic domain (Homo sapiens (Human)) | < 50 nM
N#CCC1CCN(c2nc(Nc3ccc(OCCO)cc3)c3c(=O)[nH]ncc3n2)CC1 [Example 293] | Syk (356-635 amino acids) catalytic domain (Homo sapiens (Human)) | < 100 nM
N#CCN1CCN(c2nc(Nc3ccc(N4CCC5(CC4)CC5C(=O)O)cc3)c3c(=O)[nH]ncc3n2)CC1 (stereo not drawn) [Example 73] | Syk (356-635 amino acids) catalytic domain (Homo sapiens (Human)) | < 100 nM
N#CCC1CCN(c2nc(Nc3ccc(CCCF)cc3)c3c(=O)[nH]ncc3n2)CC1 [Example 337] | Syk (356-635 amino acids) catalytic domain (Homo sapiens (Human)) | < 50 nM
CCN1CCN(c2ccc(Nc3nc(-c4ccc(OC(F)(F)F)cc4)nc4cn[nH]c(=O)c34)cc2)CC1 [Example 28] | Syk (356-635 amino acids) catalytic domain (Homo sapiens (Human)) | > 100 nM
O=c1[nH]ncc2nc(N3CCCCCC3)nc(Nc3ccc(N4CCCC(CCO)C4)cc3)c12 (stereo not drawn) [Example 272] | Syk (356-635 amino acids) catalytic domain (Homo sapiens (Human)) | < 50 nM
CC(C)(O)C(=O)N1CCN(Cc2ccc(Nc3nc(N4CCCCCC4)nc4cn[nH]c(=O)c34)cc2)CC1 [Example 84] | Syk (356-635 amino acids) catalytic domain (Homo sapiens (Human)) | < 50 nM
O=C(O)C1CCN(c2ccc(Nc3nc(-c4ccccc4)nc4cn[nH]c(=O)c34)cc2)CC1 [Example 13] | Syk (356-635 amino acids) catalytic domain (Homo sapiens (Human)) | < 50 nM
O=C(CC1CCN(c2ccc(Nc3nc(N4CCCCCC4)nc4cn[nH]c(=O)c34)cc2)CC1)N(CCO)CCO [Example 118] | Syk (356-635 amino acids) catalytic domain (Homo sapiens (Human)) | < 50 nM
CCN(CC)CCOc1ccc(Nc2nc(N3CCCCCC3)nc3cn[nH]c(=O)c23)cc1 [Example 159] | Syk (356-635 amino acids) catalytic domain (Homo sapiens (Human)) | < 50 nM
COc1cc(Nc2nc(N3CCCCCC3)nc3cn[nH]c(=O)c23)cc(OC)c1OC [Example 67] | Syk (356-635 amino acids) catalytic domain (Homo sapiens (Human)) | > 100 nM
CCN1CCN(c2ccc(Nc3nc(N4CCCCCC4)nc4cn[nH]c(=O)c34)cn2)CC1 [Example 229] | Syk (356-635 amino acids) catalytic domain (Homo sapiens (Human)) | < 50 nM
O=C(O)CC1CCN(CCOc2ccc(Nc3nc(N4CCCCCC4)nc4cn[nH]c(=O)c34)cc2)CC1 [Example 96] | Syk (356-635 amino acids) catalytic domain (Homo sapiens (Human)) | < 10 nM
O=c1[nH]ncc2nc(N3CCCCCC3)nc(Nc3ccc4[nH]nnc4c3)c12 [Example 339] | Syk (356-635 amino acids) catalytic domain (Homo sapiens (Human)) | < 10 nM
CN1CCN(c2ccc(Nc3nc(N4CCC(CC#N)CC4)nc4cn[nH]c(=O)c34)cc2)CC1 [Example 248] | Syk (356-635 amino acids) catalytic domain (Homo sapiens (Human)) | < 10 nM
O=c1[nH]ncc2nc(-c3ccccc3)nc(Nc3ccc(OCCN4CCNCC4)cc3)c12 [Example 152] | Syk (356-635 amino acids) catalytic domain (Homo sapiens (Human)) | < 50 nM
CC1(O)CCN(CCOc2ccc(Nc3nc(N4CCC(CC#N)CC4)nc4cn[nH]c(=O)c34)cc2)CC1 [Example 185] | Syk (356-635 amino acids) catalytic domain (Homo sapiens (Human)) | < 10 nM
